U251 CTG (IC50 M): recorded values
# assay target: T1, human B7H3 on cancer cell lines (human, UniProt Q5ZPR3 29-534)
# T1 sequence (looked up): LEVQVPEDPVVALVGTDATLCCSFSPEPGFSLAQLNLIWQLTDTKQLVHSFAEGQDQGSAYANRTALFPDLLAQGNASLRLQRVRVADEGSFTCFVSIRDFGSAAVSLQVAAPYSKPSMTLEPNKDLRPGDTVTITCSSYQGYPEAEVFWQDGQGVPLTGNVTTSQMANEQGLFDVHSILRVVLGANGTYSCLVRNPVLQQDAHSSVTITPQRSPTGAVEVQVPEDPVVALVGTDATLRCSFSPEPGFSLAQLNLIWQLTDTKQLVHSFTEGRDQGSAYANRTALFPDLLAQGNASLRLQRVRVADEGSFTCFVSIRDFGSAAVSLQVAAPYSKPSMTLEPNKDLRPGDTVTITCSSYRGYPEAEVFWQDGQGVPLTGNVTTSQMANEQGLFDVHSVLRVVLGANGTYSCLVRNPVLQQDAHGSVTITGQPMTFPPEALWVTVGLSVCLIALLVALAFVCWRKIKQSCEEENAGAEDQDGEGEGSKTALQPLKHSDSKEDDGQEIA
# assay info: cell-based or functional assay
Kindly provide the numeric value in nM only, without the unit symbol.

Past entries and their recorded results:
binder	readout value
ADC Example 208-6501 (antibody, human IgG1, lambda, V domains shown, drug-linker from Intermediate F104 on Cys, sites not stated) VH: EVQLLESGGGLVQPGGSLRLSCAASGFTFSSYGMHWVRQAPGKGLEWVSAISGSGGSTYYADSVKGRFTISRDNSKNTLYLQMNSLRAEDTAVYYCARGSNYLGMDVWGQGTLVTVSS VL: QSVLTQPPSASGTPGQRVTISCSGSSSNIGRNIVNWYQQLPGTAPKLLIYRSNQRPSGVPDRFSGSKSGTSASLAISGLRSEDEADYYCQTWGTGWVFGGGTKLTVLG	0.295
ADC Example 284-6501 (antibody, human IgG1, lambda, V domains shown, drug-linker from Intermediate F284 on Cys, sites not stated) VH: EVQLLESGGGLVQPGGSLRLSCAASGFTFSSYGMHWVRQAPGKGLEWVSAISGSGGSTYYADSVKGRFTISRDNSKNTLYLQMNSLRAEDTAVYYCARGSNYLGMDVWGQGTLVTVSS VL: QSVLTQPPSASGTPGQRVTISCSGSSSNIGRNIVNWYQQLPGTAPKLLIYRSNQRPSGVPDRFSGSKSGTSASLAISGLRSEDEADYYCQTWGTGWVFGGGTKLTVLG	62.9

(Q) Which U251 CTG (IC50 M) is listed for ADC Example 274-6499 (antibody, human IgG1, lambda, V domains shown, drug-linker from Intermediate F274 on Cys, sites not stated) VH: EVQLLESGGGLVQPGGSLRLSCAASGFTFRDFYMNWIRQAPGKGLEWVSSISASGKYTYYADSVKGRFTISRDNSKNTLYLQMNSLRAEDTAVYYCAREWGYCTNDVCRNWFDPWGQGTLVTVSS VL: QSVLTQPPSASGTPGQRVTISCSGGYSNVGGNNVNWYQQLPGTAPKLLIYGNSNRPSGVPDRFSGSKSGTSASLAISGLRSEDEADYYCQSYDSSLSGSVFGGGTKLTVLG ?
(A) 1.2
